# tested.target: Tec (Homo sapiens)
# method.notes: Biochemical kinase selectivity: IC50 determination of Tec
# condition.summary: ratio of IC50 values
observation.type: Fold of Tec/Btk

[[record]]
compound = "C=CC(=O)N1CCC(C2CCNc3c(C(N)=O)c(-c4cc(C)c(C)c(OC)c4)nn32)CC1 (stereo not drawn)"
observation_type = "Fold of Tec/Btk"
result = "115 fold"

[[record]]
compound = "C=CC(=O)N1CCC(C2CCNc3c(C(N)=O)c(-c4cc(Cl)c(OC)c(Cl)c4)nn32)CC1 (stereo not drawn)"
observation_type = "Fold of Tec/Btk"
result = "50 fold"

[[record]]
compound = "C=CC(=O)N1CCC(C2CCNc3c(C(N)=O)c(-c4cc(Cl)c(C)c(OC)c4)nn32)CC1 (stereo not drawn)"
observation_type = "Fold of Tec/Btk"
result = "75.6 fold"


---

# tested.target: Tec (Homo sapiens, UniProt P42680)
# method.notes: Biochemical kinase selectivity: IC50 determination of Tec
# condition.summary: ratio of IC50 values
observation.type: Fold of Tec/Btk (fold)

[[record]]
compound = "C=CC(=O)N1CCC(C2CCNc3c(C(N)=O)c(-c4cc(OC)c(C5=CCCCC5)c(OC)c4)nn32)CC1 (stereo not shown)"
number = 23

[[record]]
compound = "C=CC(=O)Nc1ccccc1C1CCNc2c(C(N)=O)c(-c3cc(F)c(F)c(Cl)c3)nn21 (stereo not shown) [Example 158, reference compound]"
number = 19

[[record]]
compound = "C=CC(=O)N1CCC(C2CCNc3c(C(N)=O)c(-c4cc(OC)c(C(F)(F)F)c(OC)c4)nn32)CC1 (stereo not shown)"
number = 94

[[record]]
compound = "C=CC(=O)N1CC(C2CCNc3c(C(N)=O)c(-c4cc(OC)c(Br)c(OC)c4)nn32)C1 (stereo not shown)"
number = 34


---

# tested.target: EGFR (Homo sapiens, UniProt P00533)
# Sequence (P00533 25-1210): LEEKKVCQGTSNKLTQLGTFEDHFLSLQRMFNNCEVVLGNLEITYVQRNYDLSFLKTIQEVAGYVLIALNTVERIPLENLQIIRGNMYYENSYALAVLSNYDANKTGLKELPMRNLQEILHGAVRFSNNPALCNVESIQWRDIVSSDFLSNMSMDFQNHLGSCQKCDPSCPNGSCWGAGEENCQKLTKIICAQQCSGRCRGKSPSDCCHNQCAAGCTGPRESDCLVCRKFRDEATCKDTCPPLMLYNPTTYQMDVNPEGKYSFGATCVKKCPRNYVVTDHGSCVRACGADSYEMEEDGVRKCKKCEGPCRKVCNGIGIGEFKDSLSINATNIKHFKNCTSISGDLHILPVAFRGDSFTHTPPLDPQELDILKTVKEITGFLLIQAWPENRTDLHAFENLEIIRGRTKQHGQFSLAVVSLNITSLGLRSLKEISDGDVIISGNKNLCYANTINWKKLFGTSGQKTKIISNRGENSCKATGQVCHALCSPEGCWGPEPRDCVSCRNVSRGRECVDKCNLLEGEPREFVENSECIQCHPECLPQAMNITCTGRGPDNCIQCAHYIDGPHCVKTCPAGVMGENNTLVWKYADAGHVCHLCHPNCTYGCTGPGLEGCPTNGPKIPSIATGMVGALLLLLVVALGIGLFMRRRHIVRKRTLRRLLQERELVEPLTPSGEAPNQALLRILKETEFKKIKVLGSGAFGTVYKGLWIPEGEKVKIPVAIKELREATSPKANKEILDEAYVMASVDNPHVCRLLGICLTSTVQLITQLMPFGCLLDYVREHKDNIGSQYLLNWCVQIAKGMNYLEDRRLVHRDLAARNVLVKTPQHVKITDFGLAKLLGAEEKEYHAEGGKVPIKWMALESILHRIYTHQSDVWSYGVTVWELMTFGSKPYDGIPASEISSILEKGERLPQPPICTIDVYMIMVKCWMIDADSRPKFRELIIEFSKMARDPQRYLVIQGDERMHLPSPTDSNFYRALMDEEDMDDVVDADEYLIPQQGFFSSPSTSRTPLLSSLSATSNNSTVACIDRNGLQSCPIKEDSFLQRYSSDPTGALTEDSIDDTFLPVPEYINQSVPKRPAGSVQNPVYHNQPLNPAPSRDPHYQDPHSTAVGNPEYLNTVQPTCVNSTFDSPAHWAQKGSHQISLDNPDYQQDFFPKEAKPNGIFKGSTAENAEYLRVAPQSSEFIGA
# method.notes: Biochemical kinase selectivity: IC50 determination of EGFR
# condition.summary: ratio of IC50 values
Items are presented alongside their recorded Fold of EGFR/Btk.
observation.type: Fold of EGFR/Btk (fold)

[[record]]
molecule = "C=CC(=O)N1CCC(C2CCNc3c(C(N)=O)c(-c4cc(Cl)c(C5CC5)c(OC)c4)nn32)CC1 (stereo not drawn) [Example A36]"
number = 2339

[[record]]
molecule = "C=CC(=O)N1CCC(C2CCNc3c(C(N)=O)c(-c4cc(OC)c(CCc5ccccc5)c(OC)c4)nn32)CC1 (stereo not drawn) [Example A42]"
number = 668

[[record]]
molecule = "C=CC(=O)N1CC(C2CCNc3c(C(N)=O)c(-c4cc(OC)c(C)c(OC)c4)nn32)C1 (stereo not drawn) [Example B3]"
number = 324


---

# tested.target: Tec (Homo sapiens)
# Sequence (P42680 1-631): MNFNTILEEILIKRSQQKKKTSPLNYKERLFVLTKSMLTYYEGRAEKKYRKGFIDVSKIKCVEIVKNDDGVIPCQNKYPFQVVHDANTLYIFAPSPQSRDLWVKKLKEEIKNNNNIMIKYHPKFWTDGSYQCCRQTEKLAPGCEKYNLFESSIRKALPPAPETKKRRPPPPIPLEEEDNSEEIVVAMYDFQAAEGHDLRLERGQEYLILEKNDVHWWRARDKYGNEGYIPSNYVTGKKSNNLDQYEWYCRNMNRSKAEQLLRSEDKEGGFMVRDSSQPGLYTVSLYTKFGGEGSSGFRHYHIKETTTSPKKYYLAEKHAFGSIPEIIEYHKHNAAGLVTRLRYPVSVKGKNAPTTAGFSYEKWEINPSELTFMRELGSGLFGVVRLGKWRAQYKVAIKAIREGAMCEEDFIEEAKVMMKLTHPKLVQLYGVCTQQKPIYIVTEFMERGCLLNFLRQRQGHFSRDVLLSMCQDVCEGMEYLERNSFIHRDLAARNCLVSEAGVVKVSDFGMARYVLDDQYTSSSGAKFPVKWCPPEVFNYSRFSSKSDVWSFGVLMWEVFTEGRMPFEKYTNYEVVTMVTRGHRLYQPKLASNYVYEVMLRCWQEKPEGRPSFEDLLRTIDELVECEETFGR
# method.notes: Biochemical kinase selectivity: IC50 determination of Tec
# condition.summary: TR-FRET, 280 μM ATP
observation.type: IC50

[[record]]
molecule = "C=CC(=O)N1CCC(C2CCNc3c(C(N)=O)c(-c4cc(C)c(C5CC5)c(C)c4)nn32)CC1 (stereo not drawn)"
tested_target = "Tec (Homo sapiens)"
result = "> 1000 nM"

[[record]]
molecule = "C=CC(=O)N1CCC(C2CCNc3c(C(N)=O)c(-c4cc(OC)c(C5CC5)c(OC(C)C)c4)nn32)CC1 (stereo not drawn)"
tested_target = "Tec (Homo sapiens)"
result = "362 nM"

[[record]]
molecule = "C=CC(=O)N1CCC(C2CCNc3c(C(N)=O)c(-c4cc(C)cc(C)c4)nn32)CC1 (stereo not drawn)"
tested_target = "Tec (Homo sapiens)"
result = "> 1000 nM"


---

# tested.target: Btk kinase (aa2-659, Carna Biosciences) (Homo sapiens, UniProt Q06187)
# Construct: purchased Carna Biosciences
# Sequence (Q06187 2-659): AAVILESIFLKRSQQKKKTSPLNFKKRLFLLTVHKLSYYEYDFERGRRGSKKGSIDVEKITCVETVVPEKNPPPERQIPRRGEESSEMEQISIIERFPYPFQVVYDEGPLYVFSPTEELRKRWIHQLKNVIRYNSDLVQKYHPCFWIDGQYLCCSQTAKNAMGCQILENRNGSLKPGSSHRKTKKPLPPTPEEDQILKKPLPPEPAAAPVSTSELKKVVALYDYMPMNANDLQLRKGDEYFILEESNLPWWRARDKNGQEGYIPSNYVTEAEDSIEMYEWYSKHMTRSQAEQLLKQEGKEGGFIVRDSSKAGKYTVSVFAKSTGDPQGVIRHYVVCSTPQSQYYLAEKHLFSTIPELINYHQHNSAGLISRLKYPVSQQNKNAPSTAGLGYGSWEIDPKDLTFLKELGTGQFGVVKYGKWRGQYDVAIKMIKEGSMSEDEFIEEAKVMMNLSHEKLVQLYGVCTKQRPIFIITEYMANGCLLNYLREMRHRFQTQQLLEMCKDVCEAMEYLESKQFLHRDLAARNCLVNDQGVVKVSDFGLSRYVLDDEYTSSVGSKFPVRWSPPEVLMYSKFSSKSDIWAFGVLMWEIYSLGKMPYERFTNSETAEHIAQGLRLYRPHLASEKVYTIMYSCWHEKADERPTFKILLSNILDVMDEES
# method.notes: Btk kinase enzymatic assay (TR-FRET)
# Assay type: biochemical
# condition.summary: TR-FRET, 30 μM ATP, compound incubated with kinase 60 minutes
observation.type: IC50

[[record]]
molecule = "C=CC(=O)N1CCC2(CC1)CC(C1CCNc3c(C(N)=O)c(-c4cc(OC)c(C)c(OC)c4)nn31)C2 (stereo not drawn)"
observation_type = "IC50"
result = "> 100 nM"

[[record]]
molecule = "C=CC(=O)N1CCC(C2CCNc3c(C(N)=O)c(-c4cc(OC)c(C5CC5)c(OCC)c4)nn32)CC1 (stereo not drawn)"
observation_type = "IC50"
result = "2.7 nM"

[[record]]
molecule = "C=CC(=O)N1CCC(C2CCNc3c(C(N)=O)c(-c4cc(OC)c(C5CCCCC5)c(OC)c4)nn32)CC1 (stereo not drawn)"
observation_type = "IC50"
result = "6.8 nM"

[[record]]
molecule = "C=CC(=O)N1CCC(C2CCNc3c(C(N)=O)c(-c4cc(Cl)c(C)c(Cl)c4)nn32)CC1 (stereo not drawn)"
observation_type = "IC50"
result = "4.1 nM"

[[record]]
molecule = "C=CC(=O)N1CCC(C2CCNc3c(C(N)=O)c(-c4cc(OCC)c(C)c(OCC)c4)nn32)CC1 (stereo not drawn)"
observation_type = "IC50"
result = "> 100 nM"

[[record]]
molecule = "C=CC(=O)N1CCC(C2CCNc3c(C(N)=O)c(-c4cc(Cl)c(C5CC5)c(OC)c4)nn32)CC1 (stereo not drawn)"
observation_type = "IC50"
result = "1.1 nM"

[[record]]
molecule = "C=CC(=O)N1CCC(C2CCNc3c(C(N)=O)c(-c4cc(Cl)c(C5CC5)c(Cl)c4)nn32)CC1 (stereo not drawn)"
observation_type = "IC50"
result = "28 nM"

[[record]]
molecule = "C=CC(=O)N1CC2CNc3c(C(N)=O)c(-c4cc(OC)c(C)c(OC)c4)nn3C2C1 (stereo not drawn)"
observation_type = "IC50"
result = "3.4 nM"

[[record]]
molecule = "C=CC(=O)N1CCC(C2CCNc3c(C(N)=O)c(-c4cc(OC)c(-c5c(C)noc5C)c(OC)c4)nn32)CC1 (stereo not drawn)"
observation_type = "IC50"
result = "> 100 nM"

